Data provenance: patent US12637435B2

- system name: recombinant human DHODH (Homo sapiens, UniProt Q02127)
- Construct: DHODH, 31-395aa, Human, His tag, E. coli, ATGP1615; His tag
- Sequence (Q02127 31-395): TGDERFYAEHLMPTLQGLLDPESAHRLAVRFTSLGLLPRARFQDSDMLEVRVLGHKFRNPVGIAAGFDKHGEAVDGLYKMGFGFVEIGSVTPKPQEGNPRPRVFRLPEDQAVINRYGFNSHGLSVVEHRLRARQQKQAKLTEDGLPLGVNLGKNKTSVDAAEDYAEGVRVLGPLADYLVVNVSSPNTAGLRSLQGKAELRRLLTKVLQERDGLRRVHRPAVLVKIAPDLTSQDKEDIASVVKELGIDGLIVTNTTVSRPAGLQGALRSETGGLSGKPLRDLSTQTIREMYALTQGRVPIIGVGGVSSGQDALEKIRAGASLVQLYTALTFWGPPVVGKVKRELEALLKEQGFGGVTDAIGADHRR
- assay summary: DHODH enzyme reaction inhibition test (DCIP-coupled assay)
- measurement setup: recombinant human DHODH 0.175 μg/mL, DCIP absorbance 600 nm, 50 minutes, pH 8.0; read-out: Enzyme reaction inhibitory effect (IC50)
pIC50: −log10 of the molar value.
Quick reference: pIC50 of the listed items.

Known results for molecules:
# compound structure, pIC50
data = [
    ("Cc1cc(C#N)ccc1-c1cccc(Nc2ncc(C3CC3)nc2C(=O)O)c1OCC(F)(F)F", "> 8.00"),
    ("CN(C)S(=O)(=O)NC(=O)c1nc(C2CC2)cnc1Nc1cccc(C2=CCOCC2)c1OCC(F)(F)F", "≤ 7.00"),
    ("CN(C)NC(=O)c1nc(C2CC2)cnc1Nc1cccc(C2=CCOCC2)c1OCC(F)(F)F", "≤ 7.00"),
]

Here is the next item to consider.
Which measured pIC50 value corresponds to CS(=O)(=O)NC(=O)c1nc(C2CC2)cnc1Nc1cccc(C2=CCOCC2)c1OCC(F)(F)F ?
> 8.00

---

- system name: recombinant human DHODH (Homo sapiens)
- Construct: DHODH, 31-395aa, Human, His tag, E. coli, ATGP1615; His tag
- assay summary: DHODH enzyme reaction inhibition test (DCIP-coupled assay)
- measurement setup: recombinant human DHODH 0.175 μg/mL, DCIP absorbance 600 nm, 50 minutes, pH 8.0; read-out: Enzyme reaction inhibitory effect (IC50)
reported endpoint: IC50

Known results for compounds:
# compound, IC50
data = [
    ("CCOc1c(C2=CCOCC2)ccc(F)c1Nc1ncc(C2CC2)cc1C(=O)NS(C)(=O)=O [Example 3-59]", "10 to 100 nM"),
    ("C[C@H](Oc1c(Nc2ncc(C3CC3)nc2C(=O)NS(C)(=O)=O)cccc1C1=CCOCC1)C(F)(F)F [Example 3-32]", "< 10 nM"),
    ("N#Cc1ccc(-c2cccc(Nc3ncc(C4CC4)nc3C(=O)NS(N)(=O)=O)c2OCC(F)(F)F)cc1 [Example 3-41]", "< 10 nM"),
]

Which measured IC50 value corresponds to C[C@H](Oc1c(Nc2ccc(C3CC3)cc2C(=O)O)ccnc1C1=CCOCC1)C(F)(F)F [Example 1-18] ?
< 10 nM

Which measured IC50 value corresponds to C[C@H](Oc1c(Nc2ncc(C3CC3)nc2C(=O)NC#N)cccc1C1=CCOCC1)C(F)(F)F [Example 3-31] ?
< 10 nM

Which measured IC50 value corresponds to NS(=O)(=O)NC(=O)c1nc(C2CC2)cnc1Nc1cccc(C2=CCOCC2)c1OCC(F)(F)F [Example 3-10] ?
< 10 nM

Which measured IC50 value corresponds to OCc1nc(C2CC2)cnc1Nc1cccc(C2=CCOCC2)c1OCC(F)(F)F [Example 1-3] ?
10 to 100 nM

Which measured IC50 value corresponds to CS(=O)(=O)NC(=O)c1nc(C2CC2)cnc1Nc1cccc(C2CCOCC2)c1OCC(F)(F)F [Example 3-30] ?
< 10 nM

Which measured IC50 value corresponds to CS(=O)(=O)NC(=O)c1cc(C2CC2)cnc1Nc1cc(F)cc(C2CCOCC2)c1OCC(F)(F)F [Example 3-42] ?
< 10 nM

Which measured IC50 value corresponds to O=C(O)c1cc(C2CC2)cnc1Nc1cc(F)cc(C2CCOCC2)c1OCC(F)(F)F [Example 2-8] ?
< 10 nM

Which measured IC50 value corresponds to N#CNC(=O)c1nc(C2CC2)cnc1Nc1cccc(-c2ccc(C#N)cc2)c1OCC(F)(F)F [Example 3-33] ?
< 10 nM

Which measured IC50 value corresponds to O=C(O)c1nc(C2CC2)cnc1Nc1cccc(-c2ccc(F)cc2)c1OCC(F)(F)F [Example 2-13] ?
< 10 nM

Which measured IC50 value corresponds to CS(=O)(=O)NC(=O)c1nc(C2CC2)cnc1Nc1cccc(-c2ccc(C#N)cc2)c1OCC(F)(F)F [Example 3-23] ?
< 10 nM

Which measured IC50 value corresponds to CS(=O)(=O)NC(=O)c1cc(C2CC2)cnc1Nc1cccc(C2CCOCC2)c1OCC(F)(F)F [Example 3-34] ?
< 10 nM
